- TGT: human integrin αvβ5 (Homo sapiens, UniProt P06756+P18084)
- Sequence (P06756 31-1048): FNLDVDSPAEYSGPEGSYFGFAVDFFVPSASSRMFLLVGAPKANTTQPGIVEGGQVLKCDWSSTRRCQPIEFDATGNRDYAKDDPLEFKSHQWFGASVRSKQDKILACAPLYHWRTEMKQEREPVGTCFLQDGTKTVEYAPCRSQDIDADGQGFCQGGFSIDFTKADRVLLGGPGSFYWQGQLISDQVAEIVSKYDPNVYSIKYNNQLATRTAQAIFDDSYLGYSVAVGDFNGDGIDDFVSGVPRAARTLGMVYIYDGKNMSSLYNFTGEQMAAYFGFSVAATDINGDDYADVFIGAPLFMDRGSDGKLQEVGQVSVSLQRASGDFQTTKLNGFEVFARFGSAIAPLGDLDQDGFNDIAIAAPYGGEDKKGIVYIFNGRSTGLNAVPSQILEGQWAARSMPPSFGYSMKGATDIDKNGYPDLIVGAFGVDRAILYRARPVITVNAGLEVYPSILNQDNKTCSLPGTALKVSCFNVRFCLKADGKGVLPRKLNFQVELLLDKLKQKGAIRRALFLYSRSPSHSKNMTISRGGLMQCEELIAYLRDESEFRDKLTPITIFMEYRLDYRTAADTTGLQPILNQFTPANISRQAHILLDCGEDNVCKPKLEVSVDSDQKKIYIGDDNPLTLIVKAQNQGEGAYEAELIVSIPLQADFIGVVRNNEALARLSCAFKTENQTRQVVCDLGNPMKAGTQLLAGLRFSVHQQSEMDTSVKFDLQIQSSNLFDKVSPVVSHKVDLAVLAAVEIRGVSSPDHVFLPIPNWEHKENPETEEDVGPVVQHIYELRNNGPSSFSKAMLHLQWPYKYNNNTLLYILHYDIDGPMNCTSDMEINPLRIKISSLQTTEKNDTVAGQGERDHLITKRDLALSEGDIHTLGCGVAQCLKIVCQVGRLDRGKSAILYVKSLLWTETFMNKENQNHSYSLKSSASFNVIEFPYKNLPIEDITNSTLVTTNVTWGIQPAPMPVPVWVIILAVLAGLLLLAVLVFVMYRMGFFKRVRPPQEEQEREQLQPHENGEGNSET
- Sequence (P18084 24-799): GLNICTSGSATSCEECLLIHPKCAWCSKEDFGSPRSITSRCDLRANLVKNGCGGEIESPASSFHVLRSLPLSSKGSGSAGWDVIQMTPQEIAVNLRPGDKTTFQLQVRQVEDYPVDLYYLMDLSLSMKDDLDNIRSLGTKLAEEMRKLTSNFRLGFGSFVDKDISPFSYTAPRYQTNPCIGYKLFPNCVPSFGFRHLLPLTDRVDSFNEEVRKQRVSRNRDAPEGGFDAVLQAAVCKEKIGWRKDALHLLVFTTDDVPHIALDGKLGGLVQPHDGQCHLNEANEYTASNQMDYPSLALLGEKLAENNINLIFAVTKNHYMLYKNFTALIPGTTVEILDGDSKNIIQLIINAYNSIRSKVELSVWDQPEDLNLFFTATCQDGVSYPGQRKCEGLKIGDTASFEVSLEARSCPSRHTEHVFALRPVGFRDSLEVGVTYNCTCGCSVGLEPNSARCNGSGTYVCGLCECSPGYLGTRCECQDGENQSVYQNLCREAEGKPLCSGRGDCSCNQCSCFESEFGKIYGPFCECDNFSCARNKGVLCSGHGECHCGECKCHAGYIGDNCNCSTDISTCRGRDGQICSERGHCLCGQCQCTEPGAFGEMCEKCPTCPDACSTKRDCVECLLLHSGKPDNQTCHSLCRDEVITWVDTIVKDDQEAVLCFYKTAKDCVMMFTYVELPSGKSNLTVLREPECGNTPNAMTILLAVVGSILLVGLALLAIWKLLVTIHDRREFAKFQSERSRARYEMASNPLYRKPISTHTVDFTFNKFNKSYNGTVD
- TEST: Evaluation of integrin binding property (surface plasmon resonance, Biacore 3000, immobilized cyclic peptide)
- RUN CONDITIONS: SPR, 25° C., HEPES buffer with 5 mM magnesium chloride, integrin 30-1,000 nM; read-out: Performance evaluation: Binding activity (dissociation constant between the cyclic peptide and human integrin αvβ5)
pKd: −log10 of the molar value. Starred links: 1 amine or outer side, 2 acyl side, 3 side chain; linkers in the order of their positions; H or OH if unused. Positions of bridges follow the written chain, without caps; N, C: chain ends. Non-standard residues stand in square brackets, D forms with d. Residues, ends and D or L forms follow the SMILES beside them. hCys = N[C@@H](CCS)C(=O)O; Dab = NCC[C@H](N)C(=O)O; X2 = O=C(C[*:1])[*:2]
QUANTITY KIND: pKd

Use these answered entries as a reference point.
| COMPOUND | REPORTED VALUE |
| --- | --- |
| C[C@H](NC(=O)[C@H](CCCCN)NC(=O)[C@H](CCCCN)NC(=O)[C@@H](N)CCCCN)C(=O)N[C@H]1CCSCC(=O)NCC[C@@H](C(=O)N[C@@H](CC(=O)O)C(=O)O)NC(=O)[C@H](CCCNC(=N)N)NC(=O)[C@H](Cc2ccc(O)cc2)NC(=O)[C@H](CC(N)=O)NC(=O)[C@H](CC(=O)O)NC(=O)CNC(=O)[C@H](CCCNC(=N)N)NC(=O)[C@@H]2CCCN2C(=O)[C@H](CCC(=O)O)NC1=O [Cyclic peptide 42, KKKA-(Hcy)-EPRGDNYR(Dab(acetyl))D] (H-KKKA[hCys]EPRGDNYR[Dab]D-OH; linker 5-14 via X2) | 7.00 to 7.30 |
| CC(C)[C@@H]1NC(=O)[C@@H](NC(=O)[C@H](C)NC(=O)[C@H](CCCCN)NC(=O)[C@H](CCCCN)NC(=O)[C@@H](N)CCCCN)CCSCC(=O)NCC[C@@H](C(=O)N[C@@H](C)C(=O)O)NC(=O)[C@H](CCCNC(=N)N)NC(=O)[C@H](Cc2ccccc2)NC(=O)[C@H]([C@@H](C)O)NC(=O)[C@H](CC(=O)O)NC(=O)CNC(=O)[C@H](CCCNC(=N)N)NC(=O)[C@@H]2CCCN2C1=O [Cyclic peptide 74, KKKA-(Hcy)-VPRGDTFR(Dab(acetyl))A] (H-KKKA[hCys]VPRGDTFR[Dab]A-OH; linker 5-14 via X2) | > 7.30 |
| CC[C@H](C)[C@@H]1NC(=O)[C@@H](NC(=O)CNC(=O)[C@H](CCCCN)NC(=O)[C@H](CCCCN)NC(=O)[C@@H](N)CCCCN)CCSCC(=O)NCC[C@@H](C(=O)N[C@@H](C)C(=O)O)NC(=O)[C@H](CCCNC(=N)N)NC(=O)[C@H](Cc2ccccc2)NC(=O)[C@H](CO)NC(=O)[C@H](CC(=O)O)NC(=O)CNC(=O)[C@H](CCCNC(=N)N)NC(=O)[C@@H]2CCCN2C1=O [Cyclic peptide 72, KKKG-(Hcy)-IPRGDSFR(Dab(acetyl))A] (H-KKKG[hCys]IPRGDSFR[Dab]A-OH; linker 5-14 via X2) | 7.00 to 7.30 |

Please turn your attention to the following entry.
// pKd lookup, key: CC[C@H](C)[C@@H]1NC(=O)[C@@H](NC(=O)[C@H](C)NC(=O)[C@H](CCCCN)NC(=O)[C@H](CCCCN)NC(=O)[C@@H](N)CCCCN)CCSCC(=O)NCC[C@@H](C(=O)N[C@@H](C)C(=O)O)NC(=O)[C@H](C)NC(=O)[C@H](Cc2ccccc2)NC(=O)[C@H](C)NC(=O)[C@H](CC(=O)O)NC(=O)CNC(=O)[C@H](CCCNC(=N)N)NC(=O)[C@@H]2CCCN2C1=O [Cyclic peptide 90, KKKA-(Hcy)-IPRGDAFA(Dab(acetyl))A] (H-KKKA[hCys]IPRGDAFA[Dab]A-OH; linker 5-14 via X2)
> 7.30

----------
- TGT: human integrin αvβ5 (Homo sapiens, UniProt P06756+P18084)
- TEST: Evaluation of integrin binding property (surface plasmon resonance, Biacore 3000, immobilized cyclic peptide)
- RUN CONDITIONS: SPR, 25° C., HEPES buffer with 5 mM magnesium chloride, integrin 30-1,000 nM; read-out: Performance evaluation: Binding activity (dissociation constant between the cyclic peptide and human integrin αvβ5)
Starred links: 1 amine or outer side, 2 acyl side, 3 side chain; linkers in the order of their positions; H or OH if unused. Positions of bridges follow the written chain, without caps; N, C: chain ends. Non-standard residues stand in square brackets, D forms with d. Residues, ends and D or L forms follow the SMILES beside them. hCys = N[C@@H](CCS)C(=O)O; Dab = NCC[C@H](N)C(=O)O; X2 = O=C(C[*:1])[*:2]
QUANTITY KIND: Kd

What does the data say about its Kd? Entry: CC[C@H](C)[C@@H]1NC(=O)[C@@H](NC(=O)CNC(=O)[C@H](CCCCN)NC(=O)[C@H](CCCCN)NC(=O)[C@@H](N)CCCCN)CCSCC(=O)NCC[C@@H](C(=O)NCC(=O)O)NC(=O)[C@H](C)NC(=O)[C@H](Cc2ccccc2)NC(=O)[C@H](CO)NC(=O)[C@H](CC(=O)O)NC(=O)CNC(=O)[C@H](CCCNC(=N)N)NC(=O)[C@@H]2CCCN2C1=O [Cyclic peptide 95, KKKG-(Hcy)-IPRGDSFA(Dab(acetyl))G] (H-KKKG[hCys]IPRGDSFA[Dab]G-OH; linker 5-14 via X2)
< 50 nM

Same thing, different compound: CC[C@H](C)[C@@H]1NC(=O)[C@@H](NC(=O)[C@H](C)NC(=O)[C@H](CCCCN)NC(=O)[C@H](CCCCN)NC(=O)[C@@H](N)CCCCN)CCSCC(=O)NCC[C@@H](C(=O)N[C@@H](C)C(=O)O)NC(=O)[C@H](CCCNC(=N)N)NC(=O)[C@H](Cc2ccc(O)cc2)NC(=O)[C@H]([C@@H](C)O)NC(=O)[C@H](CC(=O)O)NC(=O)CNC(=O)[C@H](CCCNC(=N)N)NC(=O)[C@@H]2CCCN2C1=O [Cyclic peptide 81, KKKA-(Hcy)-IPRGDTYR(Dab(acetyl))A] (H-KKKA[hCys]IPRGDTYR[Dab]A-OH; linker 5-14 via X2)
50 to 100 nM

Now try C[C@H](NC(=O)[C@@H]1CCNC(=O)CSCC[C@H](NC(=O)[C@H](CCCCN)NC(=O)[C@H](CCCCN)NC(=O)[C@@H](N)CCCCN)C(=O)N[C@@H](CC(=O)O)C(=O)N2CCC[C@H]2C(=O)N[C@@H](CCCNC(=N)N)C(=O)NCC(=O)N[C@@H](CC(=O)O)C(=O)N[C@@H](CC(N)=O)C(=O)N[C@@H](Cc2ccccc2)C(=O)N[C@@H](CCCNC(=N)N)C(=O)N1)C(=O)O [Cyclic peptide 22, KKK-(Hcy)-DPRGDNFR(Dab(acetyl))A] (H-KKK[hCys]DPRGDNFR[Dab]A-OH; linker 4-13 via X2) .
50 to 100 nM

Likewise for C[C@H](NC(=O)[C@H](CCCCN)NC(=O)[C@H](CCCCN)NC(=O)[C@@H](N)CCCCN)C(=O)N[C@H]1CCSCC(=O)NCC[C@@H](C(N)=O)NC(=O)[C@H](CCCNC(=N)N)NC(=O)[C@H](Cc2ccc(O)cc2)NC(=O)[C@H](CC(N)=O)NC(=O)[C@H](CC(=O)O)NC(=O)CNC(=O)[C@H](CCCNC(=N)N)NC(=O)[C@@H]2CCCN2C(=O)[C@H](CCC(=O)O)NC1=O [Cyclic peptide 50, KKKA-(Hcy)-EPRGDNYR(Dab(acetyl))] (H-KKKA[hCys]EPRGDNYR[Dab]-NH2; linker 5-14 via X2) ?
100 to 200 nM

----------
- TGT: human integrin αvβ5 (Homo sapiens, UniProt P06756+P18084)
- TEST: Evaluation of integrin binding property (surface plasmon resonance, Biacore 3000, immobilized cyclic peptide)
- RUN CONDITIONS: SPR, 25° C., HEPES buffer with 5 mM magnesium chloride, integrin 30-1,000 nM; read-out: Performance evaluation: Binding activity (dissociation constant between the cyclic peptide and human integrin αvβ5)
pKd: −log10 of the molar value. Starred links: 1 amine or outer side, 2 acyl side, 3 side chain; linkers in the order of their positions; H or OH if unused. Positions of bridges follow the written chain, without caps; N, C: chain ends. Non-standard residues stand in square brackets, D forms with d. Residues, ends and D or L forms follow the SMILES beside them. hCys = N[C@@H](CCS)C(=O)O; Dab = NCC[C@H](N)C(=O)O; Dap = NC[C@H](N)C(=O)O; X1 = O=C(C[*:2])[*:1]; X2 = O=C(C[*:1])[*:2]
QUANTITY KIND: pKd

| MOLECULE | REPORTED VALUE |
| --- | --- |
| N=C(N)NCCC[C@@H]1NC(=O)[C@H](Cc2ccc(O)cc2)NC(=O)[C@H](CC(N)=O)NC(=O)[C@H](CC(=O)O)NC(=O)CNC(=O)[C@H](CCCNC(=N)N)NC(=O)[C@@H]2CCCN2C(=O)[C@H](CCC(=O)O)NC(=O)[C@@H](NC(=O)[C@H](CCCCN)NC(=O)[C@H](CCCCN)NC(=O)[C@@H](N)CCCCN)CNC(=O)CSCC[C@@H](C(N)=O)NC1=O [Cyclic peptide 52, KKK(Dap(acetyl))EPRGDNYR-(Hcy)] (H-KKK[Dap]EPRGDNYR[hCys]-NH2; linker 4-13 via X1) | 7.00 to 7.30 |
| CC[C@H](C)[C@@H]1NC(=O)[C@@H](NC(=O)CNC(=O)[C@H](CCCCN)NC(=O)[C@H](CCCCN)NC(=O)[C@@H](N)CCCCN)CCSCC(=O)NCC[C@@H](C(=O)N[C@@H](C)C(=O)O)NC(=O)[C@H](Cc2ccccc2)NC(=O)[C@H](CC(N)=O)NC(=O)[C@H](CC(=O)O)NC(=O)CNC(=O)[C@H](CCCNC(=N)N)NC(=O)[C@@H]2CCCN2C1=O [Cyclic peptide 6, KKKG-(Hcy)-IPRGDNF(Dab(acetyl))A] (H-KKKG[hCys]IPRGDNF[Dab]A-OH; linker 5-13 via X2) | 7.00 to 7.30 |
| CC[C@H](C)[C@@H]1NC(=O)[C@@H](NC(=O)[C@H](C)NC(=O)[C@H](CCCCN)NC(=O)[C@H](CCCCN)NC(=O)[C@@H](N)CCCCN)CCSCC(=O)NCC[C@@H](C(=O)N[C@@H](C)C(=O)O)NC(=O)[C@H](CCCNC(=N)N)NC(=O)[C@H](Cc2ccccc2)NC(=O)[C@H]([C@@H](C)O)NC(=O)[C@H](CC(=O)O)NC(=O)CNC(=O)[C@H](CCCNC(=N)N)NC(=O)[C@H](CO)NC1=O [Cyclic peptide 77, KKKA-(Hcy)-ISRGDTFR(Dab(acetyl))A] (H-KKKA[hCys]ISRGDTFR[Dab]A-OH; linker 5-14 via X2) | > 7.30 |
| CC[C@H](C)[C@@H]1NC(=O)[C@H](C)NC(=O)[C@@H](NC(=O)[C@H](CCCCN)NC(=O)[C@H](CCCCN)NC(=O)[C@@H](N)CCCCN)CCSCC(=O)NCC[C@@H](C(=O)N[C@@H](C)C(=O)O)NC(=O)[C@H](CCCNC(=N)N)NC(=O)[C@H](Cc2ccccc2)NC(=O)[C@H](CC(N)=O)NC(=O)[C@H](CC(=O)O)NC(=O)CNC(=O)[C@H](CCCNC(=N)N)NC(=O)[C@@H]2CCCN2C1=O [Cyclic peptide 15, KKK-(Hcy)-AIPRGDNFR(Dab(acetyl))A] (H-KKK[hCys]AIPRGDNFR[Dab]A-OH; linker 4-14 via X2) | 7.00 to 7.30 |
| CC[C@H](C)[C@@H]1NC(=O)[C@@H](NC(=O)CNC(=O)[C@H](CCCCN)NC(=O)[C@H](CCCCN)NC(=O)[C@@H](N)CCCCN)CCSCC(=O)NCC[C@@H](C(=O)NCC(=O)O)NC(=O)[C@H](CCCNC(=N)N)NC(=O)[C@H](Cc2ccccc2)NC(=O)[C@H]([C@@H](C)O)NC(=O)[C@H](CC(=O)O)NC(=O)CNC(=O)[C@H](CCCNC(=N)N)NC(=O)[C@@H]2CCCN2C1=O [Cyclic peptide 55, KKKG-(Hcy)-IPRGDTFR(Dab(acetyl))G] (H-KKKG[hCys]IPRGDTFR[Dab]G-OH; linker 5-14 via X2) | > 7.30 |

For the molecule CC[C@H](C)[C@@H]1NC(=O)[C@@H](NC(=O)CNC(=O)[C@H](CCCCN)NC(=O)[C@H](CCCCN)NC(=O)[C@@H](N)CCCCN)CCSCC(=O)NCC[C@@H](C(=O)N[C@@H](C)C(=O)O)NC(=O)[C@H](Cc2ccccc2)NC(=O)[C@H]([C@@H](C)O)NC(=O)[C@H](CC(=O)O)NC(=O)CNC(=O)[C@H](CCCNC(=N)N)NC(=O)[C@@H]2CCCN2C1=O [Cyclic peptide 58, KKKG-(Hcy)-IPRGDTF(Dab(acetyl))A] (H-KKKG[hCys]IPRGDTF[Dab]A-OH; linker 5-13 via X2) , what pKd is on record?
> 7.30

Here is the next molecule: CC[C@H](C)[C@@H]1NC(=O)[C@@H](NC(=O)[C@H](CCCCN)NC(=O)[C@H](CCCCN)NC(=O)[C@@H](N)CCCCN)CCSCC(=O)NCC[C@@H](C(=O)N[C@@H](C)C(=O)O)NC(=O)[C@H](CCCNC(=N)N)NC(=O)[C@H](Cc2ccc(O)cc2)NC(=O)[C@H](CC(N)=O)NC(=O)[C@H](CC(=O)O)NC(=O)CNC(=O)[C@H](CCCNC(=N)N)NC(=O)[C@@H]2CCCN2C1=O [Cyclic peptide 26, KKK-(Hcy)-IPRGDNYR(Dab(acetyl))A] (H-KKK[hCys]IPRGDNYR[Dab]A-OH; linker 4-13 via X2)
7.00 to 7.30

Another molecule to look at: CC(C)C[C@@H]1NC(=O)[C@@H](NC(=O)CNC(=O)[C@H](CCCCN)NC(=O)[C@H](CCCCN)NC(=O)[C@@H](N)CCCCN)CCSCC(=O)NCC[C@@H](C(=O)N[C@@H](C)C(=O)O)NC(=O)[C@H](CCCNC(=N)N)NC(=O)[C@H](Cc2ccccc2)NC(=O)[C@H]([C@@H](C)O)NC(=O)[C@H](CC(=O)O)NC(=O)CNC(=O)[C@H](CCCNC(=N)N)NC(=O)[C@@H]2CCCN2C1=O [Cyclic peptide 71, KKKG-(Hcy)-LPRGDTFR(Dab(acetyl))A] (H-KKKG[hCys]LPRGDTFR[Dab]A-OH; linker 5-14 via X2)
> 7.30
